Listed below: apparent KD of MS2 coat protein values for each entry.
Test system: MS2 coat protein
EXPERIMENT_NOTES: apparent KD of MS2 coat protein; designed switch direction (-1 OFF switch, 1 ON switch): -1; higher = weaker reporter binding
TEST_CONDITIONS: input ligand: FMN 200 uM

MACROMOLECULE_SEQUENCE	apparent KD of MS2 coat protein [nM]
GCUGGUCGAGGAUAUAUAUGACGUGCUUCGGCACGAAGAUCACAUGAGGAUCACCCAUGUAGAAGGCGACCAGC [E2/8-A1] (Eterna round: R97, puzzle: Exclusion 2)	1480
UCACAGGCUGUGGGUGGUGACAUGAGGAUCACCCAUGUUUUGCUCGUCUUGUGCCGGGCCCGGCGCCCGGGCCCGGC [-41.8, -69.2, A 10%] (Eterna round: R97, puzzle: Sensor, turn-off variant 1)	575
UGCCUAGCAGGAUAUGCUCGGGAUUACAUGAGGAUCACCCAUGUGACUGAUUGUUGUCUUGCAGAAGGGCUAGGGA [JL-EX5-4.05 ViennaUCT mod] (Eterna round: R97, puzzle: Exclusion 5)	443
CUCUCGUGAGGAUAUCUCCGCGAGAAUAAUGUUACACGCGAAGAGAAGGCACAUGAGGAUCACCCAUGUUAAAC [Eternabot (L1) Solution 31] (Eterna round: R97, puzzle: Exclusion 4)	230
GGCACACAUGAGGAUCACCCAUGUGAGGAUAUGGUGCGAUCGUCGAUAGACGAUAGCACUAGAAGGCACAUGCC [Mat - Exclusion 1 - Eli Mod - D6] (Eterna round: R97, puzzle: Exclusion 1)	25.5
CUUCACGGAGGAUAUGCGGGCUGCGACAUGAGGAUCACCCAUGUUUAUGGAGCUUGGCAUGCAGAAGGCCGGGAGC [Eternabot (L2) Solution 19] (Eterna round: R97, puzzle: Exclusion 5)	9.81
GCAUGCUAUGUCAGGAUAUACCUGUGGAUACAUAGGUAGAAGGGACAUGAGGAUCACCCAUGUCCUAAUCAUGC [Fiskers BMX 4 - 24] (Eterna round: R96, puzzle: Brourd's mod of Exclusion 4)	11.6
UACAAGCUGCUCUAAUAGAACAUGAGGAUCACCCAUGUUGCUAAACAUGAAAGAAUUGGCUCCGCAUGGAUUGCUCG [Eternabot (L2) Solution 9] (Eterna round: R97, puzzle: Sensor, turn-off variant 1)	31.9
AACUGGACAGGAUAUGUUCUUGAGCACUUGAGGAUCACCCAAGUCGUCGAGAACUCAGGCACAGAAGGGUUAAUGA [Bera] (Eterna round: R97, puzzle: Exclusion 5)	35.1
ACAGCUAAUCUGCUCGUCUACAUGAGGAUCACCCAUGUCAUGGUCCACCUAAGAGUCAGUUACCCAAGUGAUAUUCG [Eternabot (L1) Solution 29] (Eterna round: R97, puzzle: Sensor, turn-off variant 1)	204
GCGGAAAACUUAGGAUAUCAGGGCUGCACAUGAGGAUCACCCAUGUGAUAGCUCUAACGCGGUCCUGAGAAGGGAGAGCCCGGA [Rarasoa] (Eterna round: R96, puzzle: Exclusion NG 2)	94.2
AAUGAUUGACGAGGAUAUUGUGUUAGAUCACGACGAGAAGGCGUCUGUCACAUGAGGAUCACCCAUGUGAGCCUUGUGGAUAGA [Ex NG1 #77] (Eterna round: R96, puzzle: Exclusion NG 1)	618
GUUAACGUAGGAUAUUAGUACAUGAACAUGAGGAUCACCCAUGUGAGGUAGGUCUUAGAAUAAGAAGGGCGAAGAA [EX5 #28] (Eterna round: R97, puzzle: Exclusion 5)	124
UAGGUGUAGUUAGGAUAUCGUUGCGAUUAGCUACGAGAAGGAACACAUGAGGAUCACCCAUGUCUACUCAAGAAACGAAAGGAA [6th something] (Eterna round: R96, puzzle: Exclusion NG 1)	29
UUGGUGUCAGGAUAUGCUUAAUAUAUUUUAUUAUAAUAUAUACAUGAGGAUCACCCAUGUAGAAGGGACAUUGU [LRO-Excl2-07-Fireball XL5] (Eterna round: R97, puzzle: Exclusion 2)	30.2
CUAAUACAUCAGGAUAUGAUAGCUUAUAGCAUAUCAGAAGGGAUGACAUGAGGAUCACCCAUGUCAAAGGGUGA [eternacac ex6r4 sub18] (Eterna round: R97, puzzle: Exclusion 6)	130
AGAUAGUCAGGAUAUUAGUAAUAAAAGGAUAAUAAUAUUACUGAGAAGGGACAUGAGGAUCACCCAUGUAAUAU [JR_Ex4_Sub061] (Eterna round: R97, puzzle: Exclusion 4)	44.5
GGGUGCAGGCUAAGAUCCUACAUGAGGAUCACCCAUGUGGUCCGGUGACGUGAGUCACCGGACUUAGCUCGUCUUGU [salish99_S_TOV1_R5_006] (Eterna round: R97, puzzle: Sensor, turn-off variant 1)	133
